The measured values listed here are drawn from patent US20160200831A1.

Plasminogen Activation IC50 values by entry
test.system: glycosylated human PAI-1 (active form) (human, UniProt P05121 24-402, glycosylated)
Sequence (P05121 24-402 limits assumed): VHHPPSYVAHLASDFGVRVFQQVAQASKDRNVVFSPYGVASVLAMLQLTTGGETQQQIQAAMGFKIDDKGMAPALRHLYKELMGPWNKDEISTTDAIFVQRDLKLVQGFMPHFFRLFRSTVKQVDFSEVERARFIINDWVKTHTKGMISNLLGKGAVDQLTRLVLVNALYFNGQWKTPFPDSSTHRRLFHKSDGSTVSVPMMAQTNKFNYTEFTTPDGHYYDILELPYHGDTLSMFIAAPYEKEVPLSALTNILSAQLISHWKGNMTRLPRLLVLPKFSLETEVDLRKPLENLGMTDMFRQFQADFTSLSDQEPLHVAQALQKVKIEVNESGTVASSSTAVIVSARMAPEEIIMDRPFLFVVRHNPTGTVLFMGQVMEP
test.details: cell-based or functional assay
// units = nM; emit number, no label

binder | observation.type | test.value
A44-hv9 (antibody, V domains shown, humanized A44, HEK293; constant regions as for A44-hv1; also called LC5b x HC5b; variant 9) VH: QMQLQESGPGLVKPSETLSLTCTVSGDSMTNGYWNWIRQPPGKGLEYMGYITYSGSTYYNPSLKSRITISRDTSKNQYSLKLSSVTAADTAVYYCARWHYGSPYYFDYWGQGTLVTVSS VL: DIQMTQSPSSLSASVGDRVTITCKASQDINSYLSWLQQKPGKAPKTLIYRANRSVDGVPSRFSGSGSGQDYTFTISSLQPEDIATYYCLQYDEFPPTFGGGTKVEIK | Plasminogen Activation IC50 | 1.51

// Plasminogen Activation IC50 value for A44-hv1 (antibody, V domains shown, humanized A44, HEK293; also called LC1a x HC1a; variant 1) VH: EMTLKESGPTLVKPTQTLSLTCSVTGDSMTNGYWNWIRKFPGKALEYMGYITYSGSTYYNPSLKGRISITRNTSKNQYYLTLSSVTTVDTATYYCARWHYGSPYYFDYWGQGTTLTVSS VL: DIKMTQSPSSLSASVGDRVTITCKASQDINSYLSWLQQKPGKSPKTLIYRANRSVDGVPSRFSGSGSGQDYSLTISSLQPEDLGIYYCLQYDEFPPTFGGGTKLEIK : 2.08

The reported Plasminogen Activation IC50 of the binder A44 (antibody, mouse IgG1, V domains shown, mouse IgG1/kappa; also called mA44; A44 parental) VH: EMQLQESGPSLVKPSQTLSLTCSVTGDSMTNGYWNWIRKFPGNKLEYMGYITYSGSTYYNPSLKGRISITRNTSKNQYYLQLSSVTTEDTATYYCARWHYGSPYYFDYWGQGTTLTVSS VL: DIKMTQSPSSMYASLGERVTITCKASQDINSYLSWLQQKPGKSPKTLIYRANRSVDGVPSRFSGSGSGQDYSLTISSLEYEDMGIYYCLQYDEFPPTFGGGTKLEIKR was 3.13

A44-hv13 (antibody, V domains shown, humanized A44, HEK293; constant regions as for A44-hv1; also called LC2 x HC5b; variant 13) VH: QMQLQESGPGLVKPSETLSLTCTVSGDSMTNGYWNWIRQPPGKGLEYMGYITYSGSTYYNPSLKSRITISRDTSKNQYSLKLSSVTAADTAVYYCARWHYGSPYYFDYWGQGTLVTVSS VL: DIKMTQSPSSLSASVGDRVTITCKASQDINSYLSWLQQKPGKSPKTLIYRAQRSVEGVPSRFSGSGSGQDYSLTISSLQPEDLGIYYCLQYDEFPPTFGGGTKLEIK has a reported Plasminogen Activation IC50 of 1.82

For this binder ( A44-hv11 (antibody, V domains shown, humanized A44, HEK293; compared with a human IgG1 isotype control; constant regions as for A44-hv1; also called A44V11; A44v11) VH: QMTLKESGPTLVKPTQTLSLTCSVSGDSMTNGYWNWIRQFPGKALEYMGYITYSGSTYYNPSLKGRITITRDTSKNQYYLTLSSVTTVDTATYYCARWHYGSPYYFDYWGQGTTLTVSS VL: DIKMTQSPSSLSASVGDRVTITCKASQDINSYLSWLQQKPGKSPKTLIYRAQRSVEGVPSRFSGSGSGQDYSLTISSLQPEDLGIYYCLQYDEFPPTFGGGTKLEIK ), measured Plasminogen Activation IC50 is 2.01
